studyTarget: RhaS (Escherichia coli, UniProt P09377)
Sequence (P09377 whole entry): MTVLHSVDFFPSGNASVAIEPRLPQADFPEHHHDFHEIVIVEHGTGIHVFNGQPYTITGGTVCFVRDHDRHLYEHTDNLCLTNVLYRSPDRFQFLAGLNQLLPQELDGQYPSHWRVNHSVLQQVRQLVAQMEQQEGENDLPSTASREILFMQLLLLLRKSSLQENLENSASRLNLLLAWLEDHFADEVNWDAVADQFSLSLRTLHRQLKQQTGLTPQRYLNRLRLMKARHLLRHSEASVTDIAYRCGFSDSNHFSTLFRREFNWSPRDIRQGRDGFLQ
experiment: % Inhibition at 82.5 μM, RhaS
Assay type: cell-based, E. coli
Reported inhibition at 82.5 µM values follow for various compounds
Reply with just the number (in %).

Please look at this compound and report its inhibition at 82.5 µM: `CCCCCCCCC[n+]1cc(-c2ccc3ccccc3n2)cc2ccccc21` 100

---
Please look at this compound and report its inhibition at 82.5 µM: CN1C=C(c2ccc3ccccc3n2)C(C[N+](=O)[O-])c2ccccc21 (centres unmarked) [Compound E1] 90

Please look at this compound and report its inhibition at 82.5 µM: `CCCCN1C=C(c2ccc3ccccc3n2)Cc2ccccc21` 60

Please look at this compound and report its inhibition at 82.5 µM: CCOC(=O)CN1C=C(c2ccc3ccccc3n2)C(C[N+](=O)[O-])c2ccccc21 (centres unmarked) 0

Please look at this compound and report its inhibition at 82.5 µM: CCN1C=C(c2ccc3ccccc3n2)C(C#N)c2ccccc21 (centres unmarked) 30

Please look at this compound and report its inhibition at 82.5 µM: O=[N+]([O-])CC1C(c2ccc3ccccc3n2)=CN(Cc2ccc(Cl)cc2)c2ccccc21 (centres unmarked) 40

Please look at this compound and report its inhibition at 82.5 µM: CCCCN1C=C(c2cccc(C)n2)C(C[N+](=O)[O-])c2ccccc21 (centres unmarked) 50

Please look at this compound and report its inhibition at 82.5 µM: CCCCN1C=C(c2cccc(C)n2)C(C#N)c2ccccc21 (centres unmarked) 40

* * *

Reported inhibition at 82.5 µM values follow for various compounds
studyTarget: VirF (Shigella flexneri, UniProt P0A2T1)
Sequence (P0A2T1 whole entry): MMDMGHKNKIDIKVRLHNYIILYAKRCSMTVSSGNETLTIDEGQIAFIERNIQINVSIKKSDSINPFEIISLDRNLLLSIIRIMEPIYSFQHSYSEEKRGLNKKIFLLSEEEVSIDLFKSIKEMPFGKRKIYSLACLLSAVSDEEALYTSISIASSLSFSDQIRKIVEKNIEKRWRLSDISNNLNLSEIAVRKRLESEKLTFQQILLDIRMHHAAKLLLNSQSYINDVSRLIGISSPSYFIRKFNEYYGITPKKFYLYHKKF
experiment: % Inhibition at 82.5 μM, VirF
Format: cell-based
conditionParameters: read-out: % Inhibition at 82.5 μM VirF, 82.5 μM

Please look at this compound and report its inhibition at 82.5 µM: Cc1cccc(C2=CN(Cc3ccc(Cl)cc3)c3ccccc3C2C[N+](=O)[O-])n1 (stereo not drawn) 10%

Please look at this compound and report its inhibition at 82.5 µM: CCOC(=O)C(C(=O)OCC)C1C(c2ccc3ccccc3n2)=CN(C)c2ccccc21 (stereo not drawn) 100%

Please look at this compound and report its inhibition at 82.5 µM: `CCCCN1C=C(c2ccc3ccccc3n2)Cc2ccccc21` 70%

Please look at this compound and report its inhibition at 82.5 µM: CCCCN1C=C(c2ccc3ccccc3n2)C(C)c2ccccc21 (stereo not drawn) 30%

Please look at this compound and report its inhibition at 82.5 µM: CCN1C=C(c2ccc3ccccc3n2)C(C#N)c2ccccc21 (stereo not drawn) 20%

Please look at this compound and report its inhibition at 82.5 µM: CCCCN1C=C(c2cccc(C)n2)C(C[N+](=O)[O-])c2ccccc21 (stereo not drawn) 10%

---
Please look at this compound and report its inhibition at 82.5 µM: `Clc1ccc(C[n+]2cc(-c3ccc4ccccc4n3)cc3ccccc32)cc1` 60%

Please look at this compound and report its inhibition at 82.5 µM: `CCCC[n+]1cc(-c2ccc3ccccc3n2)cc2ccccc21` 90%

Please look at this compound and report its inhibition at 82.5 µM: CN1C=C(c2ccc3ccccc3n2)C(C[N+](=O)[O-])c2ccccc21 (stereo not drawn) [Compound E1] 100%

* * *

Reported inhibition at 82.5 µM values follow for various compounds
studyTarget: Rns (Escherichia coli)
Sequence (P16114 whole entry): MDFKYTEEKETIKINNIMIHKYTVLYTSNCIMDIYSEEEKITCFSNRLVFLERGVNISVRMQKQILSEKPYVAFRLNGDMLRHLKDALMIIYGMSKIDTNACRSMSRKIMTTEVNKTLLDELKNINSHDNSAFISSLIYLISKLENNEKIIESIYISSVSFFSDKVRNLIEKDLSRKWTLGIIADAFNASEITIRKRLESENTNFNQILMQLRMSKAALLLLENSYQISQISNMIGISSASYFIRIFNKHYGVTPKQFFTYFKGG
experiment: % Inhibition at 82.5 μM, Rns
Assay type: cell-based, Enterotoxigenic E. coli
conditionParameters: read-out: % Inhibition at 82.5 μM Rns
Reply with just the number (in %).

Known results for compounds:
Please look at this compound and report its inhibition at 82.5 µM: CCOC(=O)CN1C=C(c2ccc3ccccc3n2)C(C[N+](=O)[O-])c2ccccc21 (stereo not drawn) 30

Please look at this compound and report its inhibition at 82.5 µM: `CCC[n+]1cc(-c2ccc3ccccc3n2)cc2ccccc21` 90

Please look at this compound and report its inhibition at 82.5 µM: `CC(C)[n+]1cc(-c2ccc3ccccc3n2)cc2ccccc21` 90

Please look at this compound and report its inhibition at 82.5 µM: `CCCC[n+]1cc(-c2ccc3ccccc3c2)cc2ccccc21` 100

Please look at this compound and report its inhibition at 82.5 µM: `C=CCCC[n+]1cc(-c2ccc3ccccc3n2)cc2ccccc21` 100

---
Please look at this compound and report its inhibition at 82.5 µM: O=[N+]([O-])CC1C(c2ccc3ccccc3n2)=CN(Cc2ccc(Cl)cc2)c2ccccc21 (stereo not drawn) 30

Please look at this compound and report its inhibition at 82.5 µM: `C[n+]1cc(-c2ccc3ccccc3n2)cc2ccccc21` 90

Please look at this compound and report its inhibition at 82.5 µM: CCCCN1C=C(c2ccc3ccccc3n2)C(C[N+](=O)[O-])c2ccccc21 (stereo not drawn) 90

Please look at this compound and report its inhibition at 82.5 µM: `Clc1ccc(C[n+]2cc(-c3ccc4ccccc4n3)cc3ccccc32)cc1` 50

Please look at this compound and report its inhibition at 82.5 µM: CN1C=C(c2ccc3ccccc3n2)C(c2c(-c3ccccc3)[nH]c3ccccc23)c2ccccc21 (stereo not drawn) [Compound D2] 10

Please look at this compound and report its inhibition at 82.5 µM: CCCCN1C=C(c2ccc3ccccc3n2)C(C#N)c2ccccc21 (stereo not drawn) 20

Please look at this compound and report its inhibition at 82.5 µM: `CCCCN1C=C(c2ccc3ccccc3n2)Cc2ccccc21` 80
